# METHOD DESCRIPTION: chemical genetic growth profiling, strain panel (AID 1159580);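 also: tested at 20 µM; growth read once vehicle control cultures reached saturation at 30 °C; 1 = growth at the plate median or of vehicle wells; lower values mean less growth of the strain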
# MEASUREMENT SETUP: S. cerevisiae deletion strains, growth OD, locus YML016C, strain PPZ1, hits give low values
Hit rate of the full screen: of about 5,500 compounds, about 2,000 (36%) were called active. Another 18% or so got no clear call; they are omitted. The list shows a part of the results.
READOUT NAME: normalized growth
Give bare numbers.

For each of the molecules below, state normalized growth.
1. CC(CN1c2ccccc2Sc2cccnc21)N(C)C (configuration not stated)
2. CCCC(CCC)C(=O)O
3. COC(=O)c1c(C)cc(OC(=O)c2c(C)cc(O)c(C=O)c2O)c(C)c1O
4. CCC(=O)c1ccc2c(c1)N(CC(C)N(C)C)c1ccccc1S2 (configuration not stated)
5. CC12CC3CC(C)(C1)CC(N)(C3)C2

A:
1: 1.02; 2: 0.992; 3: 1; 4: 0.994; 5: 0.998
